system: M. tuberculosis H37Rv; experiment: MABA (microplate Alamar blue assay) MIC; type: cell-based; settings: Mycobacterium tuberculosis, 336 h, read-out: MIC M. tuberculosis H37Rv
measure-name: MIC

Some entries whose results are on file:
| molecule | system-under-test | MIC |
| --- | --- | --- |
| CC/C=C\C/C=C\C/C=C\CCCCCCCC(=O)N1CCCC2CN(c3c(F)cc4c(=O)c(C(=O)O)cn(C5CC5)c4c3OC)CC21 (stereo not shown) | M. tuberculosis H37Rv | 256 µg/mL |
| C/C=C/C(=O)N1CCCC2CN(c3c(F)cc4c(=O)c(C(=O)O)cn(C5CC5)c4c3OC)CC21 (stereo not shown) | M. tuberculosis H37Rv | 64 µg/mL |
| CCCCCCCC/C=C\CCCCCCCC(=O)N1CCCC2CN(c3c(F)cc4c(=O)c(C(=O)O)cn(C5CC5)c4c3OC)CC21 (stereo not shown) | M. tuberculosis H37Rv | > 512 µg/mL |

[in] Item COc1c(N2CC3CCCN(C(=O)/C=C(\C)CCC=C(C)C)C3C2)c(F)cc2c(=O)c(C(=O)O)cn(C3CC3)c12 (stereo not shown) has what recorded MIC?
[out] 128 µg/mL

* * *

system: S. epidermidis T 5253 845/19; assay: MIC, clinical S. epidermidis strain; assay type: cell-based; conditions: Staphylococcus epidermidis, T5253845/19, quinolone-resistant, 18 h of treatment
What MIC was measured for each of the following?
One number for each entry, in µg/mL.

Check out these entries, answers already filled in.
| molecule | MIC / µg/mL |
| --- | --- |
| CCCCC/C=C\C/C=C\CCCCCCCC(=O)N1CCCC2CN(c3c(F)cc4c(=O)c(C(=O)O)cn(C5CC5)c4c3OC)CC21 (stereo not shown) [Compound 11m] | 512 |
| CC/C=C\C/C=C\C/C=C\CCCCCCCC(=O)N1CCCC2CN(c3c(F)cc4c(=O)c(C(=O)O)cn(C5CC5)c4c3OC)CC21 (stereo not shown) | 256 |
| CCCCC/C=C\C/C=C\C/C=C\C/C=C\CCCC(=O)N1CCCC2CN(c3c(F)cc4c(=O)c(C(=O)O)cn(C5CC5)c4c3OC)CC21 (stereo not shown) [Compound 13m] | 512 |

Please state, for each entry, its recorded MIC.
1. CCCCC/C=C\C/C=C\C/C=C\CCCCC(=O)N1CCCC2CN(c3c(F)cc4c(=O)c(C(=O)O)cn(C5CC5)c4c3OC)CC21 (stereo not shown) [Compound 12m]
2. CCCCCCCC(=O)N1CCCC2CN(c3c(F)cc4c(=O)c(C(=O)O)cn(C5CC5)c4c3OC)CC21 (stereo not shown) [Compound 15m]

[out]
512
8

* * *

tested on: E. coli ATCC 25922; experiment: MIC, twofold microdilution, standard strain; format: cell-based, Escherichia coli; conditions: Escherichia coli, ATCC25922; 18 h of treatment; read-out: MIC E. coli ATCC 25922
measure-name: MIC (µg/mL)
Answers are plain numbers, in µg/mL.

| compound | recorded-number |
| --- | --- |
| CCCCC/C=C\C/C=C\C/C=C\C/C=C\CCCC(=O)N1CCCC2CN(c3c(F)cc4c(=O)c(C(=O)O)cn(C5CC5)c4c3OC)CC21 (stereo not drawn) [Compound 13m] | 16 |

[in] Param item = COc1c(N2CC3CCCN(C(C)=O)C3C2)c(F)cc2c(=O)c(C(=O)O)cn(C3CC3)c12 (stereo not drawn) [Compound 14m] ; retrieve measured MIC.
[out] 8

* * *

test system: SW480, SW620, and PC3 cancer cell lines; test: MTT assay, cancer cell lines as a group; format: cell-based, human; conditions: Homo sapiens, 72 h, all three cancer cell lines (SW480, SW620, PC3), read-out: IC50 against all tested cancer cell lines
pIC50: −log10 of the molar value.
Please provide measured pIC50 for the entries that follow.

| compound | system-under-test | result |
| --- | --- | --- |
| CCCCCCCC/C=C/CCCCCCCC(=O)N1CCCC2CN(c3c(F)cc4c(=O)c(C(=O)O)cn(C5CC5)c4c3OC)CC21 (centres unmarked) | SW480, SW620, and PC3 cancer cell lines | 5.00 to 5.30 |
| CCCCCCCC(=O)N1CCCC2CN(c3c(F)cc4c(=O)c(C(=O)O)cn(C5CC5)c4c3OC)CC21 (centres unmarked) [Compound 15m] | SW480, SW620, and PC3 cancer cell lines | > 5.30 |

For each listed entry, give its pIC50.
1. CC/C=C\C/C=C\C/C=C\C/C=C\C/C=C\C/C=C\CCC(=O)N1CCCC2CN(c3c(F)cc4c(=O)c(C(=O)O)cn(C5CC5)c4c3OC)CC21 (centres unmarked)
2. CCCCCCCC/C=C\CCCCCCCC(=O)N1CCCC2CN(c3c(F)cc4c(=O)c(C(=O)O)cn(C5CC5)c4c3OC)CC21 (centres unmarked)
3. CCCCCCCCCCCCCCCC(=O)N1CCC[C@H]2CN(c3c(F)cc4c(=O)c(C(=O)O)cn(C5CC5)c4c3OC)C[C@H]21

[out]
1: 5.00 to 5.30; 2: > 5.30; 3: 5.00 to 5.30

* * *

tested on: S. epidermidis T 5253 845/19; test: MIC, clinical S. epidermidis strain; format: cell-based; conditions: Staphylococcus epidermidis, T5253845/19, quinolone-resistant, 18 h of treatment
Field: MIC. Provide a value for each of the compounds that follow.
Numbers only, in µg/mL.

| compound | system-under-test | MIC [µg/mL] |
| --- | --- | --- |
| C/C=C/C(=O)N1CCCC2CN(c3c(F)cc4c(=O)c(C(=O)O)cn(C5CC5)c4c3OC)CC21 (centres unmarked) | S. epidermidis T 5253 845/19 | 64 |
| C/C=C/C=C/C(=O)N1CCCC2CN(c3c(F)cc4c(=O)c(C(=O)O)cn(C5CC5)c4c3OC)CC21 (centres unmarked) | S. epidermidis T 5253 845/19 | 32 |
| CCCCCCCCCCCCCCCC(=O)N1CCC[C@H]2CN(c3c(F)cc4c(=O)c(C(=O)O)cn(C5CC5)c4c3OC)C[C@H]21 | S. epidermidis T 5253 845/19 | 512 |

For every listed record, write down its MIC.
1. CCCCCCCC/C=C/CCCCCCCC(=O)N1CCCC2CN(c3c(F)cc4c(=O)c(C(=O)O)cn(C5CC5)c4c3OC)CC21 (centres unmarked)
2. CC/C=C\C/C=C\C/C=C\C/C=C\C/C=C\C/C=C\CCC(=O)N1CCCC2CN(c3c(F)cc4c(=O)c(C(=O)O)cn(C5CC5)c4c3OC)CC21 (centres unmarked)
3. CCCCCCCCCCCCCCCCCC(=O)N1CCCC2CN(c3c(F)cc4c(=O)c(C(=O)O)cn(C5CC5)c4c3OC)CC21 (centres unmarked) [Compound 16m]

[out]
512
512
512
